- experimental protocol: chemical genetic growth profiling, strain panel (AID 1159580);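 also: tested at 20 µM; growth read once vehicle control cultures reached saturation at 30 °C; lower values mean less growth of the strain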
- experimental conditions: S. cerevisiae deletion strains, growth OD, locus YKL067W, strain YNK1
Screen size: about 5,500 compounds; about 2,000 (36%) were called active. Another 18% or so got no clear call; they are omitted. Rule as the data show it: active = normalized growth mostly below about 0.91 (no sharp cut-off); inconclusive = no clear call, values can overlap the other calls; inactive = mostly above about 0.92. The list shows a part of the results.
Tick one outcome: True for active, False for inactive

O=C(Oc1ccc(C(F)(F)F)cc1[N+](=O)[O-])c1cccc(Cl)c1: True
Cc1ccc2nc(-c3ccc(Cl)cc3)cn2c1: False

Prompt: // outcome(item) with item = Cc1c(Cc2ccc(F)cc2)c(=O)oc2cc(O)ccc12
Response: False

Prompt: // outcome(item) with item = S=C(Nc1ccc(Cl)cc1Cl)N(c1cccc(Cl)c1)c1nc2ccccc2s1
Response: False

Prompt: // outcome(item) with item = CC(=O)CSc1nnc(-c2ccc(C(C)(C)C)cc2)n1-c1ccc(Cl)cc1
Response: False

Prompt: // outcome(item) with item = Cc1cc(Cl)ccc1NNC(=O)c1ccno1
Response: False

Prompt: // outcome(item) with item = Cc1nnsc1C(=O)Nc1cc(C(F)(F)F)cc(C(F)(F)F)c1
Response: False

Prompt: // outcome(item) with item = Cc1ccc(-c2csc(-c3cccnc3)n2)c(C)c1
Response: False

Prompt: // outcome(item) with item = O=C(NNc1ccccc1F)c1ccno1
Response: False

Prompt: // outcome(item) with item = COc1cc(NC(=S)NC(=O)c2ccccc2)c(OC)cc1Cl
Response: False

Prompt: // outcome(item) with item = Cc1nn(Cc2cccc(C(=O)Nc3ccc(Cl)cc3)c2)c(C)c1Br
Response: False

Prompt: // outcome(item) with item = Cc1cc(NNC(=O)c2ccccc2Cl)nc2c1c(C)nn2C
Response: False

Prompt: // outcome(item) with item = COc1cc(NC(=S)N(C)C)c(OC)cc1Cl
Response: False

Prompt: // outcome(item) with item = Cc1nnsc1C(=O)NNc1ccc(F)cc1F
Response: False

Prompt: // outcome(item) with item = OC1(C(F)(F)F)CC(C23CC4CC(CC(C4)C2)C3)=NN1 (centres undefined)
Response: True

Prompt: // outcome(item) with item = CSC1=NNC(c2nn(C)cc2Cl)S1 (centres undefined)
Response: True

Prompt: // outcome(item) with item = Cc1ccc(OCC2SCCN2C(=O)c2ccc(C(F)(F)F)cc2)c([N+](=O)[O-])c1 (centres undefined)
Response: False

Prompt: // outcome(item) with item = Cc1ccccc1C(=O)Oc1ccc(C(F)(F)F)cc1[N+](=O)[O-]
Response: False

Prompt: // outcome(item) with item = CCOC(=O)CSC(=S)NCc1ccc(C)cc1
Response: False

Prompt: // outcome(item) with item = Cc1cc(C(=O)Nc2ccc(Cl)cc2)nn1C(C)(C)C
Response: False

Prompt: // outcome(item) with item = O=S(=O)(Nc1cccc(CCc2ccccn2)c1)c1cc(Cl)c(Cl)cc1Cl
Response: False

Prompt: // outcome(item) with item = O=C1C(=O)N(CN2CCc3c([nH]c4ccccc34)C2C(F)(F)F)c2ccc(F)cc21 (centres undefined)
Response: False

Prompt: // outcome(item) with item = O=c1c(Sc2ccc(Cl)cc2)c(Sc2ccc(Cl)cc2)c1=O
Response: True

Prompt: // outcome(item) with item = COc1ccc(CN2CSC(=S)N(Cc3ccc(OC)cc3)C2)cc1
Response: False
